subjectOfTest: human androgen receptor (Homo sapiens, UniProt P10275)
Construct: expressed in transfected cells; host or cells: Chinese hamster ovary (CHO) cells, cell line CHO-AR-pMMTV-LUC 1G12-A5-CA
Sequence (P10275 1-920): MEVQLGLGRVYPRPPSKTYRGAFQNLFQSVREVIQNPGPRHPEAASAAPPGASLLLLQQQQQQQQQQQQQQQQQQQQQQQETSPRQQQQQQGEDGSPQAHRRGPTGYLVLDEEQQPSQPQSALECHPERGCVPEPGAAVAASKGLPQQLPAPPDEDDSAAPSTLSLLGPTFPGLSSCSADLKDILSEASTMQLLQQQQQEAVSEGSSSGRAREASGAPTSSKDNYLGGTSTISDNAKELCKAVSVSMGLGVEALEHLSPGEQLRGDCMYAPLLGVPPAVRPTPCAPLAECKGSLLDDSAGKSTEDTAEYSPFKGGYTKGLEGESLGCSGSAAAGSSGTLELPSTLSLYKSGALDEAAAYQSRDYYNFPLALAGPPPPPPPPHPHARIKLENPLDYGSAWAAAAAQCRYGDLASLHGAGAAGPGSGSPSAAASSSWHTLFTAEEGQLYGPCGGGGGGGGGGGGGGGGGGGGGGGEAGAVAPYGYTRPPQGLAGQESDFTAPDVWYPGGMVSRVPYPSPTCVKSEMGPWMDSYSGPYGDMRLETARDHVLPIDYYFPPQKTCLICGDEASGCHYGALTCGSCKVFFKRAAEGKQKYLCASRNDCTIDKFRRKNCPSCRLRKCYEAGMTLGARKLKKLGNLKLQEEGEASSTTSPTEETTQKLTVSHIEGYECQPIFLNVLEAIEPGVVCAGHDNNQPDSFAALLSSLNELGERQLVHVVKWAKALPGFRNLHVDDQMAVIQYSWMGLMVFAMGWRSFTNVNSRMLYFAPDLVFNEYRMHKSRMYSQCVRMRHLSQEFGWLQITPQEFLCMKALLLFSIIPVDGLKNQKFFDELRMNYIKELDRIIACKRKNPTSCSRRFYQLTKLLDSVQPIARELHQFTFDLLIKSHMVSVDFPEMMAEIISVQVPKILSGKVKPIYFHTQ
method: Androgen receptor transactivation assay, androgenic activity in the presence of 0.1 µmol/l onapristone (CHO-AR-pMMTV-LUC cells; Table 5)
Assay type: cell-based
protocolConditions: potency expressed as percentage of DHT activity
quantityName: ago potency

Take a look at these entries with their results.
[
  {
    "compound": "COc1ccc2c(Sc3ccccc3[N+](=O)[O-])cn(Cc3ccncc3)c2c1 [Compound 93]",
    "ago potency": "± (between 0.1 % and 1%)"
  },
  {
    "compound": "CCNC(=O)c1ccc2c(Sc3ccccc3[N+](=O)[O-])cn(Cc3cccnc3)c2c1 [Compound 113]",
    "ago potency": "+ (between 1% and 5%)"
  },
  {
    "compound": "CCC(=O)Nc1ccc2c(Sc3ccccc3[N+](=O)[O-])cn(Cc3cc(F)cc(F)c3)c2c1 [Compound 99]",
    "ago potency": "± (between 0.1 % and 1%)"
  },
  {
    "compound": "Cn1cnc(S(=O)(=O)Nc2ccc3c(Sc4ccccc4[N+](=O)[O-])cn(Cc4cc(F)cc(F)c4)c3c2)c1 [Compound 108]",
    "ago potency": "+ (between 1% and 5%)"
  },
  {
    "compound": "CC(=O)Nc1ccc2c(Sc3ccccc3[N+](=O)[O-])cn(Cc3cccnc3)c2c1 [Compound 103]",
    "ago potency": "+ (between 1% and 5%)"
  },
  {
    "compound": "O=C(CF)Nc1ccc2c(Sc3ccccc3[N+](=O)[O-])cn(Cc3cccnc3)c2c1 [Compound 104]",
    "ago potency": "+ (between 1% and 5%)"
  }
]

Incoming: What ago potency value was documented for this compound, O=C(NC1CC1)c1ccc2c(Sc3ccccc3[N+](=O)[O-])cn(Cc3cccnc3)c2c1 [Compound 114] ?
Outgoing: + (between 1% and 5%)

###

subjectOfTest: human androgen receptor (Homo sapiens, UniProt P10275)
Construct: expressed in transfected cells; host or cells: Chinese hamster ovary (CHO) cells, cell line CHO-AR-pMMTV-LUC 1G12-A5-CA
method: Androgen receptor transactivation assay, antiandrogenic activity: inhibition of transactivation in the presence of 1 nM DHT (CHO-AR-pMMTV-LUC cells; Table 4)
Type: cell-based
protocolConditions: read-out: ant efficacy, in the presence of 1 nM DHT; intrinsic activity relative to reference antiandrogen Hydroxyflutamide (set at 100%)
quantityName: Emax

Look over these answered cases.
[
  {
    "molecule": "CC(C)NC(=O)c1ccc2c(Sc3ccccc3[N+](=O)[O-])cn(Cc3cc(F)cc(F)c3)c2c1",
    "Emax": "20 to 50%"
  },
  {
    "molecule": "COc1ccc2c(Sc3ccccc3[N+](=O)[O-])cn(Cc3ccccc3[N+](=O)[O-])c2c1",
    "Emax": "< 20%"
  },
  {
    "molecule": "COc1ccc2c(Sc3ccccc3[N+](=O)[O-])cn(CC3CCCCO3)c2c1 (stereo not shown)",
    "Emax": "< 20%"
  },
  {
    "molecule": "O=[N+]([O-])c1ccc2c(Sc3ccccc3[N+](=O)[O-])cn(Cc3cc(F)cc(F)c3)c2c1",
    "Emax": "< 20%"
  },
  {
    "molecule": "CCCNC(=O)c1ccc2c(Sc3ccccc3[N+](=O)[O-])cn(Cc3cc(F)cc(F)c3)c2c1",
    "Emax": "20 to 50%"
  }
]

Okay, here is my list. What is Emax for each of these?
1. CCN(CC)C(=O)c1ccc2c(Sc3ccccc3[N+](=O)[O-])cn(Cc3cc(F)cc(F)c3)c2c1
2. COc1ccc2c(Sc3ccccc3[N+](=O)[O-])cn(Cc3cccc([N+](=O)[O-])c3)c2c1

Outgoing:
["20 to 50%", "< 20%"]

###

subjectOfTest: human androgen receptor (Homo sapiens)
Construct: expressed in transfected cells; host or cells: Chinese hamster ovary (CHO) cells, cell line CHO-AR-pMMTV-LUC 1G12-A5-CA
method: cell-based
quantityName: EC50

[
  {
    "compound": "O=[N+]([O-])c1ccccc1Sc1cn(Cc2cc(F)cc(F)c2)c2ccccc12",
    "subjectOfTest": "human androgen receptor (Homo sapiens)",
    "experimentalResult": "< 5 nM"
  }
]

Now consider the entry below.
Incoming: Consider the molecule shown here: "O=[N+]([O-])c1ccccc1Sc1cn(Cc2cc(F)cc(F)c2)c2cccc(F)c12" What is its recorded EC50?
Outgoing: 5 to 100 nM

###

subjectOfTest: human androgen receptor (Homo sapiens)
Construct: expressed in transfected cells; host or cells: Chinese hamster ovary (CHO) cells, cell line CHO-AR-pMMTV-LUC 1G12-A5-CA
method: Androgen receptor transactivation assay, androgenic activity in the presence of 0.1 µmol/l onapristone (CHO-AR-pMMTV-LUC cells; Table 5)
Type: cell-based
protocolConditions: potency expressed as percentage of DHT activity
quantityName: ago potency

[
  {
    "compound": "CN(C)C(=O)c1ccc2c(Sc3ccccc3[N+](=O)[O-])cn(Cc3ccccn3)c2c1",
    "experimentalResult": "+ (between 1% and 5%)"
  },
  {
    "compound": "N#Cc1ccc2c(Sc3ccccc3[N+](=O)[O-])cn(Cc3ccncc3)c2c1",
    "experimentalResult": "+ (between 1% and 5%)"
  },
  {
    "compound": "COc1ccc2c(Sc3ccccc3[N+](=O)[O-])cn(Cc3cc(F)c(F)c(F)c3)c2c1",
    "experimentalResult": "+ (between 1% and 5%)"
  }
]

###

subjectOfTest: human androgen receptor (Homo sapiens, UniProt P10275)
Construct: expressed in transfected cells; host or cells: Chinese hamster ovary (CHO) cells, cell line CHO-AR-pMMTV-LUC 1G12-A5-CA
method: Androgen receptor transactivation assay, androgenic activity in the presence of 0.1 µmol/l onapristone (CHO-AR-pMMTV-LUC cells; Table 5)
Assay type: cell-based
protocolConditions: potency expressed as percentage of DHT activity
Method: The androgenic activity (EC50, potency, and efficacy) of the compounds in Table 5 was determined in an in vitro bioassay of Chinese hamster ovary (CHO) cells stably transfected with the human androgen receptor expression plasmid and a reporter plasmid in which the MMTV promotor is linked to the luciferase reporter gene. […] The androgen receptor activity of compounds was determined in the presence of 0.1 µmol/l onapristone. […] The potencies are expressed as percentage of DHT activity. […]
quantityName: ago potency

[
  {
    "compound": "NC(=O)c1ccc2c(Sc3ccccc3[N+](=O)[O-])cn(Cc3ccccn3)c2c1",
    "subjectOfTest": "human androgen receptor (Homo sapiens, UniProt P10275)",
    "ago potency": "± (between 0.1 % and 1%)"
  },
  {
    "compound": "O=CNc1ccc2c(Sc3ccccc3[N+](=O)[O-])cn(Cc3cncnc3)c2c1",
    "subjectOfTest": "human androgen receptor (Homo sapiens, UniProt P10275)",
    "ago potency": "++ (>5%)"
  },
  {
    "compound": "CNC(=O)c1ccc2c(Sc3ccccc3[N+](=O)[O-])cn(Cc3ccccn3)c2c1",
    "subjectOfTest": "human androgen receptor (Homo sapiens, UniProt P10275)",
    "ago potency": "+ (between 1% and 5%)"
  },
  {
    "compound": "COc1ccc2c(Sc3ccccc3[N+](=O)[O-])cn(Cc3cc(F)cc(F)c3F)c2c1",
    "subjectOfTest": "human androgen receptor (Homo sapiens, UniProt P10275)",
    "ago potency": "± (between 0.1 % and 1%)"
  },
  {
    "compound": "COc1ccc2c(Sc3ccccc3[N+](=O)[O-])cn(Cc3cncnc3)c2c1",
    "subjectOfTest": "human androgen receptor (Homo sapiens, UniProt P10275)",
    "ago potency": "++ (>5%)"
  },
  {
    "compound": "N#Cc1ccc2c(Sc3ccccc3[N+](=O)[O-])cn(Cc3ccccn3)c2c1",
    "subjectOfTest": "human androgen receptor (Homo sapiens, UniProt P10275)",
    "ago potency": "++ (>5%)"
  },
  {
    "compound": "CS(=O)(=O)Nc1ccc2c(Sc3ccccc3[N+](=O)[O-])cn(Cc3cc(F)cc(F)c3)c2c1",
    "subjectOfTest": "human androgen receptor (Homo sapiens, UniProt P10275)",
    "ago potency": "+ (between 1% and 5%)"
  }
]

Okay, now this compound:
Incoming: Looking for the measured ago potency of "CCC(=O)Nc1ccc2c(Sc3ccccc3[N+](=O)[O-])cn(Cc3cccnc3)c2c1" , can you help?
Outgoing: + (between 1% and 5%)
